# protocol-summary: method code SF, from Hansch, C. & Leo, A. (1987). Log P database [Dataset]. Pomona College Medicinal Chemistry Project.
Each entry below lists one item and its recorded logP value.
Returns: the value as a bare number; no unit string appended.

Consider the worked cases shown below.
[
  {
    "compound": "OCC(F)(F)F",
    "logP": 0.32
  },
  {
    "compound": "O=C(CNC(=O)c1ccccc1)Oc1cccc(C(F)(F)F)c1",
    "logP": 3.3
  },
  {
    "compound": "O=[N+]([O-])c1cccc2ncccc12",
    "logP": 1.86
  }
]

get_value(item= Sc1ccccc1 , readout=logP) returns 2.52

get_value(item= CC1CCC(=O)CC1 , readout=logP) returns 1.38

get_value(item= CN(C)/N=N/c1cc(C#N)cc(C#N)c1 , readout=logP) returns 2.18

get_value(item= COc1ccccc1OC(C)=O , readout=logP) returns 1.38

get_value(item= O=C(Nc1ccccc1)N(c1ccccc1)c1ccccc1 , readout=logP) returns 3.28

get_value(item= O=C1OC(C2CCCCC2)c2ccccc21 (stereo not given) , readout=logP) returns 3.34

get_value(item= CC(=O)Nc1ccc(Oc2ccccc2)cc1 , readout=logP) returns 3.13

get_value(item= Nc1cccc2c1C(=O)c1ccccc1C2=O , readout=logP) returns 2.87
